Hello, the source for this data is paper PMC8521015, in case you need it.

STUDY SYSTEM: Se-DSP1 (Spodoptera exigua, UniProt A0A5P9L9K9)
Sequence (A0A5P9L9K9 1-505): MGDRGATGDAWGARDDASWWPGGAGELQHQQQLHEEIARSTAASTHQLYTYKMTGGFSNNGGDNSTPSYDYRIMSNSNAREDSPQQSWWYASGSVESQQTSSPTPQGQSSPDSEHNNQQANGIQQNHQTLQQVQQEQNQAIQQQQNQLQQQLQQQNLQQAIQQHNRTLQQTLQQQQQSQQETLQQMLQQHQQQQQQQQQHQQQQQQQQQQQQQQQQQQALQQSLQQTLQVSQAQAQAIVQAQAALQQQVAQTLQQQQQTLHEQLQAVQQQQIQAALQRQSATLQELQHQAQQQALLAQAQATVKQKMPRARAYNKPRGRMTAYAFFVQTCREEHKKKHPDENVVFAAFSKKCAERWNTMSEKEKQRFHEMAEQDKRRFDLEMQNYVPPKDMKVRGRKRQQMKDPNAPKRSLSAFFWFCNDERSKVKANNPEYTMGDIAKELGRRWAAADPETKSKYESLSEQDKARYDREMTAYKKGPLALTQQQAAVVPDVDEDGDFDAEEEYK
MEASURED PARAMETER: pKd
Please express pKd as -log10 of the molar concentration.

## Input Quick one: give measured pKd for O=C(O)c1ccccc1O [SA, 2-hydroxybenzoic acid]
## Output 5.89
